// compounds with pIC50 on HPK1 (Homo sapiens (Human)), multi-source literature
pIC50: −log10 of the molar value.

Write down the reported pIC50 (system: HPK1 (Homo sapiens (Human))) of CN(C)CCN(C)C(=O)c1ccc(-c2c[nH]c3ncc(-c4ccc5c(c4)OCC4CN(C)CCN54)nc23)cc1 (stereo not drawn)
≥ 8.00

Write down the reported pIC50 (system: HPK1 (Homo sapiens (Human))) of CC(N)c1cccc(Nc2nc(Nc3cc4c(cc3Cl)CCN(C)C4)ncc2C(N)=O)c1 (stereo not drawn)
9.27

Write down the reported pIC50 (system: HPK1 (Homo sapiens (Human))) of `CN[C@@H]1CCN(c2c(NC(=O)c3ccc(=O)n(-c4c(F)cccc4F)n3)ccc3c2nc(C(C)C)n3C)C1`
> 7.00

Write down the reported pIC50 (system: HPK1 (Homo sapiens (Human))) of COc1cc2c(cc1Nc1ncc(C(N)=O)c(NC3CCC(c4ccccc4)C3)n1)CN(C)CC2 (stereo not drawn)
7.74

Write down the reported pIC50 (system: HPK1 (Homo sapiens (Human))) of `CN1CCN(c2ccc3nc(-c4c(N[C@H]5CCC[C@H]5O)c5ccsc5[nH]c4=O)[nH]c3c2)CC1`
≥ 7.30

Write down the reported pIC50 (system: HPK1 (Homo sapiens (Human))) of `COc1cccc(F)c1-n1cccc(C(=O)Nc2cc(F)c3c(cnn3C)c2N2C[C@H]3C[C@@H]2CN3)c1=O`
6.00 to 7.00

* * *

// molecules with IC50 on HPK1 (Homo sapiens (Human), UniProt Q92918), multi-source literature

Write down the reported IC50 (system: HPK1 (Homo sapiens (Human), UniProt Q92918)) of `O=C1NCc2c(-c3cnc4cc(F)ccn34)ccc(Nc3ccn(C4CCOCC4)n3)c21`
> 1 µM

Write down the reported IC50 (system: HPK1 (Homo sapiens (Human), UniProt Q92918)) of C[C@@H]1CC[C@](C)(O)CN1c1ccc(Nc2ccc(-c3cnn4c3CCCC4)c3c2C(=O)NC3)nc1 (stereo in doubt)
< 0.1 µM

Write down the reported IC50 (system: HPK1 (Homo sapiens (Human), UniProt Q92918)) of CN1CCC(Oc2cc(F)c(-c3cc4c(-c5ccc6c(c5)OCC5CN(C)CCN65)n[nH]c4cc3C#N)c(F)c2)CC1 (stereo not drawn)
≤ 0.01 µM

* * *

// compounds with IC50 on HPK1 (Homo sapiens (Human), UniProt Q92918), multi-source literature

Write down the reported IC50 (system: HPK1 (Homo sapiens (Human), UniProt Q92918)) of `CCNC(=O)c1ccn2c(-c3ccc(Nc4ccc(N5CCC(O)CC5)cn4)c4c3CNC4=O)cnc2c1`
100 to 1000 nM

Write down the reported IC50 (system: HPK1 (Homo sapiens (Human), UniProt Q92918)) of `CCNC(=O)c1ccn2c(-c3ccc(Nc4ccc(N5CCOCC5)cn4)c4c3CNC4=O)cnc2c1`
100 to 1000 nM

Write down the reported IC50 (system: HPK1 (Homo sapiens (Human), UniProt Q92918)) of `COc1cc2c(cc1Nc1ncc(C(N)=O)c(N[C@@H]3c4ccccc4C[C@@H]3O)n1)CN(C)CC2`
0.86 nM

Write down the reported IC50 (system: HPK1 (Homo sapiens (Human), UniProt Q92918)) of CN(C)Cc1nc(Nc2ccc(-c3cnc4cc(F)ccn34)c3c2C(=O)NC3)ccc1[C@@]1(C)CCCO1 (single isomer, unassigned)
≤ 100 nM

Write down the reported IC50 (system: HPK1 (Homo sapiens (Human), UniProt Q92918)) of `CN(C)C(=O)c1ccc(F)c(-c2cc(Nc3ccc(N4CCC(O)CC4)cn3)c3c(=O)[nH]ccc3n2)c1`
100 to 1000 nM

Write down the reported IC50 (system: HPK1 (Homo sapiens (Human), UniProt Q92918)) of N#Cc1ccncc1-c1ccc(NC(=O)c2ccc(=O)n(-c3c(F)cccc3F)n2)c(N2CC[C@](N)(C(F)(F)F)C2)c1 (single isomer, unassigned)
< 100 nM

Write down the reported IC50 (system: HPK1 (Homo sapiens (Human), UniProt Q92918)) of `Cn1c(C(F)F)nc2c(N3CC[C@@H](N)C3)c(NC(=O)c3ccc(=O)n(-c4c(F)cccc4F)n3)ccc21`
< 100 nM
